system.tested: T1, UNK ZnF1-3 (human, UniProt Q9C0B0 31-174)
T1 sequence: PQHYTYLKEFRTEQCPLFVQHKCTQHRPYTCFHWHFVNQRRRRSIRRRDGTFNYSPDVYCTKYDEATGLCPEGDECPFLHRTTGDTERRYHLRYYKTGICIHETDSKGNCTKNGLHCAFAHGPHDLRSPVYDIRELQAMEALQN
procedure.details: nsRBNS (natural sequence RNA bind-n-seq); RBNS binding buffer (assumed for nsRBNS): 25 mM Tris pH 7.5, 150 mM KCl, 3 mM MgCl2, 0.01% Triton X-100, 500 ug/ml BSA, 20 U/ml SUPERase-In, 4 C; UNK is unkempt and MSI1 is Musashi-1; names of the RNAs are library labels; protein concentration not given here; high values mean tight binding
Whole data set: some 24,000 sequences, median “enrichment r” near 0.99, cut for the highest 2% near 3.7. Shown is part of a subset that was picked to be rich in the highest values.
metric.name: binding signal

binder="chrX:165757501:165757502:-_ENSMUSG00000031352_ENSMUST00000112115|mus_mus|FALSE|FALSE (ssRNA) RNA: GGGAGUUCUACAGUCCGACGAUCAGCAGGAGAAGAUGCUGAGGCACCCAUGGCUGGAAUCACAGGGGUCACUCCCAAUCUAAAAUACCCAGCAAAACGGGAGGCAAGGAGCGGCGAAGGGCAGGAAGCCACCAGUGUUGCCUUCAACAGAGGAUUGAGCAUCA" result="1.75 enrichment R"
binder="chr17:56552419:56552420:-_ENSMUSG00000013236_ENSMUST00000086828|mus_mus|mus_mus_mus_hu_False|88_98 (ssRNA) RNA: GGGAGUUCUACAGUCCGACGAUCAAAAAAUACACUAUAAAAAAAAAAAAGAAAAAAACGGGAUACAGUUACACUGAGAGUUUUAAAAGAAAGCUGGAUUCUGGUCCCAGCCCAGUGUCCCCAGGCUGCAGAGCGGGGAGGAGCCAACAGAGGAUUGAGCAUCA" result="16 enrichment R"
binder="chr17:56552419:56552420:-_ENSMUSG00000013236_ENSMUST00000086828|mus_mus|mus_mus_mus_hu_False|1_88 (ssRNA) RNA: GGGAGUUCUACAGUCCGACGAUCAAAAAAUACACUAUUUAAAAAAAAAAGAAAAAAACGGGAUACAGUUACACUGAGAGUUUUAAAAGAAAGCUGGAUUCUGGUCCCAGCCCAGUGUCCCCAGGCUGCAGAGCGGGGCAGAGGCAACAGAGGAUUGAGCAUCA" result="7.19 enrichment R"
binder="chr17:56552419:56552420:-_ENSMUSG00000013236_ENSMUST00000086828|mus_mus|mus_mus_mus_hu_False|18_88 (ssRNA) RNA: GGGAGUUCUACAGUCCGACGAUCAAAAAAUACACUAUUUAAAAAAAAAAGAAAAAAACGGGAUACAGUUACACUGAGAGUUUUAAAAGAAAGCUGGAUUCUGGUCCCAGCCCAGUGGCAGGCAGGGGCAGAGCGGGGAGGAGCCAACAGAGGAUUGAGCAUCA" result="9.03 enrichment R"
binder="chr11:54532911:54532912:-_ENSMUSG00000052298_ENSMUST00000064104|mus_hu|FALSE|FALSE (ssRNA) RNA: GGGAGUUCUACAGUCCGACGAUCGGGUCGGCAGUGAAAAGAAAAAUGUUUAAAAUAGAAAAAAAAAACUGCAAAAUGGUGUUAGCAUUCACAAAAAAGAUCAUGCGAAGAUCAGAUCCAUACUGAUUAAACAUUGAAAAUUCACAACAGAGGAUUGAGCAUCA" result="4.5 enrichment R"
binder="chr17:56552419:56552420:-_ENSMUSG00000013236_ENSMUST00000086828|mus_mus|mus_mus_mus_hu_False|48_88 (ssRNA) RNA: GGGAGUUCUACAGUCCGACGAUCAAAAAAUACACUAUUUAAAAAAAAAAGAAAAAAACGGGAUACAGUUACACUGAGAGUUUUAAAAAAAAAUAAGAUUCUGGUCCCAGCCCAGUGUCCCCAGGCUGCAGAGCGGGGAGGAGCCAACAGAGGAUUGAGCAUCA" result="16.3 enrichment R"
binder="chr5:144471560:144471561:-_ENSMUSG00000051306_ENSMUST00000053287|mus_hu|FALSE|FALSE (ssRNA) RNA: GGGAGUUCUACAGUCCGACGAUCGAGACUCCAGUAUCAGUGAAGACAAGAGACGCUGUAUCAAAAAGUGUUGUGUAAUAGAAACAUACUGUCGGCUUUACAAAUCAUGUCUGGGUUAUACAUUCAUAAUGUAAAUACUCAUCACAACAGAGGAUUGAGCAUCA" result="1.01 enrichment R"
